target: Heat shock factor protein 1 (Homo sapiens) (UniProt Q00613); test: ATG_HSE_CIS: Attagene CIS-FACTORIAL HepG2 Assay for human Heat Shock Transcription Factor 1 (HSE) (AID 2282953); details: HepG2 HSE cis-reporter, Attagene RNA transcription; actives raise or lower the signal
Sequence (Q00613 whole entry, looked up): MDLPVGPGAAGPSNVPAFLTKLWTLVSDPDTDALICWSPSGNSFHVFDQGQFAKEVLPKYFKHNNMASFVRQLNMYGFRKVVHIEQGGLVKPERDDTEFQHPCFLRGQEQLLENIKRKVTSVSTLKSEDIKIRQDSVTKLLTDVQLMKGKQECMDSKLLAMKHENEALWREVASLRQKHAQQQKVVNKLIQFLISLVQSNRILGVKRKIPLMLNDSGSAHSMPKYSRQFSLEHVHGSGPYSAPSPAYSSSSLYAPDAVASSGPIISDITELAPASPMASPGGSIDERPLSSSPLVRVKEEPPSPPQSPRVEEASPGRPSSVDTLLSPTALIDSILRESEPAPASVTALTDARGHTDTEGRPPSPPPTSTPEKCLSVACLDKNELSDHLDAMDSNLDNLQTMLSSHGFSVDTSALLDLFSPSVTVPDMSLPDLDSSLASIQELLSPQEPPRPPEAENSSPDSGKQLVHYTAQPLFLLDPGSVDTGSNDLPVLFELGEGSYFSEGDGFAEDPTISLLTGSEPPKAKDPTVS
The source made the active and inactive calls. How the source made its calls: active means hit-call score of the fitted dose curve at least 0.9, where 1 is the maximum; inactive means score below 0.9.
MEASURED ATTRIBUTE: outcome

## Input Which outcome is listed for `CCC(C)(C)C(=O)OC1=C(c2ccc(Cl)cc2Cl)C(=O)OC12CCCCC2` ?
## Output inactive

## Input Which outcome is listed for `COC(=O)c1ccccc1S(=O)(=O)NC(=O)Nc1nc(C)nc(OC)n1` ?
## Output inactive

## Input Which outcome is listed for CC[C@H](C)[C@H]1O[C@]2(C=C[C@@H]1C)C[C@@H]1C[C@@H](C/C=C(\C)[C@@H](O[C@H]3C[C@H](OC)[C@@H](O[C@H]4C[C@H](OC)[C@@H](O)[C@H](C)O4)[C@H](C)O3)[C@@H](C)/C=C/C=C3\CO[C@@H]4[C@H](O)C(C)=C[C@@H](C(=O)O1)[C@]34O)O2 (tested in a mixture with another compound) ?
## Output inactive

* * *

assay: IUF_NPC2-5_cytotoxicity_120hr: Cytotoxicity Assessment at 120 hours in the Leibniz Research Institute for Environmental Medicine (IUF) Neural Progenitor Cell Migration and Differentiation Assay (NPC2-5) (AID 2284307);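 on AC50: LDH released into supernatant as membrane damage marker via resorufin fluorescence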
Activity calls are given as the source filed them. How the source made its calls: active means hit-call score of the fitted dose curve at least 0.9, where 1 is the maximum; inconclusive means response in the unintended direction; inactive means score below 0.9.
MEASURED ATTRIBUTE: AC50

Examples with answers:
## Input Which AC50 is listed for CC1(C)C(C=C(Cl)Cl)C1C(=O)OC(C#N)c1ccc(F)c(Oc2ccccc2)c1 (stereo unspecified) ?
## Output inactive

## Input Which AC50 is listed for `O=C(O)C(F)(F)C(F)(F)C(F)(F)C(F)(F)C(F)(F)C(F)(F)C(F)(F)F` ?
## Output inactive

## Input Which AC50 is listed for `COP(=O)(OC)OC=C(Cl)Cl` ?
## Output 89 µM (active)

## Input Which AC50 is listed for `COP(=S)(OC)Oc1ccc([N+](=O)[O-])cc1` ?
## Output inactive

## Input Which AC50 is listed for `O=C(O)COc1ccc(Cl)cc1Cl` ?
## Output inactive

More entries:
## Input Which AC50 is listed for CC[C@H](C)[C@H]1O[C@]2(C=C[C@@H]1C)C[C@@H]1C[C@@H](C/C=C(\C)[C@@H](O[C@H]3C[C@H](OC)[C@@H](O[C@H]4C[C@H](OC)[C@@H](O)[C@H](C)O4)[C@H](C)O3)[C@@H](C)/C=C/C=C3\CO[C@@H]4[C@H](O)C(C)=C[C@@H](C(=O)O1)[C@]34O)O2 (tested in a mixture with another compound) ?
## Output 6.89 µM (active)

## Input Which AC50 is listed for `O=[N+]([O-])/N=C1\NCCN1Cc1ccc(Cl)nc1` ?
## Output inactive

## Input Which AC50 is listed for `CNC(=O)CSP(=S)(OC)OC` ?
## Output inactive

## Input Which AC50 is listed for `CC(C)N(C(=O)COc1nnc(C(F)(F)F)s1)c1ccc(F)cc1` ?
## Output 0.0343 µM (active)

## Input Which AC50 is listed for CC1(c2ccc(Oc3ccccc3)cc2)OC(=O)N(Nc2ccccc2)C1=O (stereo unspecified) ?
## Output inactive

## Input Which AC50 is listed for O=S1OCC2C(CO1)C1(Cl)C(Cl)=C(Cl)C2(Cl)C1(Cl)Cl (stereo unspecified) ?
## Output inactive
